Recorded koff for the following binders
- Target Of Assay: T1, recombinant human IL-17A (human, UniProt Q16552 24-155)
- T1 construct: Bought recombinant protein (Peprotech AF-200-17); also called Peprotech AF-200-17
- T1 sequence (Q16552 24-155): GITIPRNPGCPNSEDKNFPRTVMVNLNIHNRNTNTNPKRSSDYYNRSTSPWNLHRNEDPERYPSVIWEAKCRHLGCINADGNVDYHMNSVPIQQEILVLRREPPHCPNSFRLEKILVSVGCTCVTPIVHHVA
- Protocol Summary: SPR (BIAcore T200), IL-17A coupled to CM5 chip, single-cycle kinetics;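 also: VH domain analytes, kinetic constants obtained by fitting blank-corrected sensorgrams to a 1:1 binding model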
Hey, just the number and the unit after it is fine.

- VH 1.20.1 (clone 1.20 expressed from phagemid vector: with linker residues and His tag) (VHH, Human single VH domain) VHH: EVQLVESGGGLVQPGGSLRLSCAASGFTFSSYGMYWVRQAPGKGLEWVAKIEQDGSEEYYADSVKGRFTISRDNAKKSLYLQMNSLRAEDTAVYYCAKGEILPLYFDYWGQGTLVTVSS: 0.000208 s⁻¹

Reported koff of VH 1.21.1 (clone 1.21 expressed from phagemid vector: with linker residues and His tag) (VHH, Human single VH domain) VHH: EVQLVESGGGLVLPGGSLRLSCAASGFTFSSYSMYWVRQAPGKGLEWVAEIKQDGSEQYYVDSVKGRFTISRDNAKNSLYLQMNSLRAEDTAVYYCAKGEILPLYFDYWGQGTLVTVSS : 0.000205 s⁻¹

Reported koff of VH 1.17.1 (clone 1.17 expressed from phagemid vector: with linker residues and His tag) (VHH, Human single VH domain) VHH: EVQLVESGGGLVQPGGSLRLSCAASGFTFSSYSMYWVRQAPGKGLEWVAEIKPTGSVQYYVSDVKGRFTISRDNAKNSLYLQMNSLRAEDTAVYYCAKGEILPLYFDYWGQGTLVTVSS : 0.000462 s⁻¹

Reported koff of Clone 1.11 (VHH, Human single VH domain) VHH: EVQLVESGGGLVQPGGSLRLSCAASGFTFSSYQMYWVRQAPGKGLEWVASIKQDGSEEYYVDSVKGRFTISRDNAKNSLFLQMNSLRAEDTAVYYCAKGEILPLYFDYWGQGTLVTVSS : 0.000521 s⁻¹
